Before we begin, note that these pKd values for PIKFYVE (Homo sapiens) originate from several publications.
pKd: −log10 of the molar value.

Worked examples, 7 compounds total:
INSERT INTO assay_data (molecule, targetdesc, experimentalresult) VALUES
  ('Cc1ccc(NC(=S)Nc2cccc(C(F)(F)F)c2)cc1Nc1nc(-c2cccnc2)c2[nH]ccc2n1', 'PIKFYVE (Homo sapiens)', 6.96),
  ('CCN1CCN(c2ccc(Nc3ncnc(N(C)C(=O)Nc4c(Cl)c(OC)c(Cl)c(OC)c4Cl)n3)cc2)CC1', 'PIKFYVE (Homo sapiens)', 5.59),
  ('COc1ccc(C(F)(F)F)cc1NC(=O)c1ccc(C)c(Nc2nc(-c3cccs3)c3[nH]ccc3n2)c1', 'PIKFYVE (Homo sapiens)', '< 4.52'),
  ('COc1ccc(C(F)(F)F)cc1NC(=O)c1ccc(C)c(Nc2nc(-c3ccco3)c3[nH]ccc3n2)c1', 'PIKFYVE (Homo sapiens)', '< 4.52'),
  ('Cc1ccc(NC(=O)c2cc(C(F)(F)F)cc(C(F)(F)F)c2)cc1Nc1nc(-c2cccnc2)c2[nH]ccc2n1', 'PIKFYVE (Homo sapiens)', 6.04),
  ('Cc1ccc(NC(=O)c2cccc(C(F)(F)F)c2)cc1Nc1nc(-c2cccs2)c2[nH]ccc2n1', 'PIKFYVE (Homo sapiens)', '< 4.52'),
  ('Cc1cccc(/C=N/Nc2nc(N3CCOCC3)c3ccsc3n2)c1', 'PIKFYVE (Homo sapiens)', '7.22 to 8.00');

We now examine a further compound.
Incoming: Form field: pKd recorded for `Cc1cccc(/C=N/Nc2nc(N3CCOCC3)c3cc(-c4c(C)n[nH]c4C)sc3n2)c1` with PIKFYVE (Homo sapiens) (enter value)
Outgoing: 8.00 to 9.00
